PROTOCOL DESCRIPTION: Blood pharmacokinetics (dried blood spot LC-MS/MS, non-compartmental analysis)
Assay type: in vivo, human
SETUP CONDITIONS: human, whole blood, oral, 150 mg, 150 mg BID, Cycle 1 Day 1 (single dose), blood, N = 3; geometric mean (% CV)
PROPERTY: AUC(0-inf) (ng·h/mL)
Write the number in ng·h/mL without appending the unit.

Please give the measured AUC(0-inf) for this compound: CO[C@@H](C)Cn1c(=O)n(C)c2cnc3ccc(-c4cncc(C(C)(C)O)c4)cc3c21
3050

* * *

PROTOCOL DESCRIPTION: Blood pharmacokinetics (dried blood spot LC-MS/MS, non-compartmental analysis)
Assay type: in vivo, human
SETUP CONDITIONS: human, whole blood, oral, 200 mg, 200 mg BID, Cycle 1 Day 1 (single dose), blood, N = 9; median (range); read-out: tmax
PROPERTY: Tmax (h)
Write the number in h without appending the unit.

Please give the measured Tmax for this compound: CO[C@@H](C)Cn1c(=O)n(C)c2cnc3ccc(-c4cncc(C(C)(C)O)c4)cc3c21
1.95
